Numbers sourced from ChEMBL document CHEMBL4251662.

In this section we review reported inhibition values for a set of compounds.
Target: Cannabinoid receptor 1 (Homo sapiens, UniProt P21554)
Sequence (P21554 whole entry): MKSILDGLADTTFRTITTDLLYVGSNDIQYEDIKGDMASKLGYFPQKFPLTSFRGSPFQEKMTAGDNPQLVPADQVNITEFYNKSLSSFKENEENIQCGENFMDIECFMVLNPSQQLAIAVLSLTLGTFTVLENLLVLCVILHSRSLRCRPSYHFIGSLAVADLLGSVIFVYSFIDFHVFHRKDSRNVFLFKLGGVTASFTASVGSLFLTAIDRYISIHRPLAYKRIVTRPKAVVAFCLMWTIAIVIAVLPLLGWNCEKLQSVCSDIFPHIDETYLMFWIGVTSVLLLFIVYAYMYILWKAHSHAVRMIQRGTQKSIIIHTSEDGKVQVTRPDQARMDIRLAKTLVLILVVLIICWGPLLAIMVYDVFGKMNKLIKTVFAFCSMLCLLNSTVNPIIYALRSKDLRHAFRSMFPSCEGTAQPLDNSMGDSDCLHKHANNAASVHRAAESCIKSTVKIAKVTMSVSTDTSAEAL
Assay: Displacement of [3H]CP55,940 from N-terminal HA-tagged human CB1 receptor expressed in HEK293 cell membranes at 10 uM after 1 hr by microbeta scintillation counting method relative to control

# annotated cases, reported inhibition shown
1) COc1ccc(C(=O)c2cn(CC3CCOCC3)c3ccc(O)cc23)cc1 ... > 50%
2) COc1ccc(C(=O)c2cn(CCN3CCOCC3)c3ccc(OCC(=O)O)cc23)cc1 ... > 50%
3) COc1ccc(C(=O)c2cn(CCN3CCOCC3)c3ccc(OCC(=O)N[C@@H](C)C(=O)N[C@@H](C)C(=O)NCCN)cc23)cc1 ... > 50%
4) COc1ccc(C(=O)c2cn(CC3CCOCC3)c3ccc(OCC(=O)O)cc23)cc1 ... > 50%
5) O=C(c1cn(CCN2CCOCC2)c2ccc(O)cc12)C1CCCCC1 ... > 50%
6) COc1ccc(C(=O)c2cn(CCN3CCOCC3)c3ccc(OCC(=O)NCCOCCOCCNC(C)=O)cc23)cc1 ... > 50%
7) O=C(O)COc1ccc2c(c1)c(C(=O)c1cccc3ccccc13)cn2CCN1CCOCC1 ... > 50%
8) COc1ccc(C(=O)c2cn(CCN3CCOCC3)c3ccc(OCC(=O)NCCCCCCCCN)cc23)cc1 ... > 50%

Q: Give its inhibition value. Item: COc1ccc(C(=O)c2cn(CCN3CCOCC3)c3ccc(O)cc23)cc1
A: > 50%
